System: RAW 264.7 macrophages
Assay type: cell-based, murine
details: mouse, 24 h, 100 µM
// reported Cell Viability (% vs. Control) for each item listed
reported-property: Cell Viability (% vs. Control) (%)

>>> value("CC(C)c1cc(C=O)c2c(c1O)OC(=O)C1C(C)(C)CCC[C@]21C=O (some centres unmarked) [Compound 4, saficinolide]")
101.3
>>> value("CC(C)C1CC2C(CO)(CC(O)C(O)C2(C)C)c2c(O)cc(O)cc21 (centres unmarked)")
97.3
>>> value("CC(C)c1cc2c(c(O)c1O)[C@]13CO[C@H]2C[C@H]1C(C)(C)C[C@H](O)C3")
91.6
>>> value("CC(C)c1cc(O)c2c(c1O)[C@@H]1CC3C(C)(C)CCC[C@]23C(=O)O1 (some centres unmarked)")
106.7
>>> value("CC(C)c1cc2c(c(O)c1O)[C@@]13CCCC(C)(C)[C@@H]1C[C@@H]2OC3=O")
110.5
